- system_name: ERα in MCF7 cells (Homo sapiens (Human))
- Sequence (P03372 whole entry): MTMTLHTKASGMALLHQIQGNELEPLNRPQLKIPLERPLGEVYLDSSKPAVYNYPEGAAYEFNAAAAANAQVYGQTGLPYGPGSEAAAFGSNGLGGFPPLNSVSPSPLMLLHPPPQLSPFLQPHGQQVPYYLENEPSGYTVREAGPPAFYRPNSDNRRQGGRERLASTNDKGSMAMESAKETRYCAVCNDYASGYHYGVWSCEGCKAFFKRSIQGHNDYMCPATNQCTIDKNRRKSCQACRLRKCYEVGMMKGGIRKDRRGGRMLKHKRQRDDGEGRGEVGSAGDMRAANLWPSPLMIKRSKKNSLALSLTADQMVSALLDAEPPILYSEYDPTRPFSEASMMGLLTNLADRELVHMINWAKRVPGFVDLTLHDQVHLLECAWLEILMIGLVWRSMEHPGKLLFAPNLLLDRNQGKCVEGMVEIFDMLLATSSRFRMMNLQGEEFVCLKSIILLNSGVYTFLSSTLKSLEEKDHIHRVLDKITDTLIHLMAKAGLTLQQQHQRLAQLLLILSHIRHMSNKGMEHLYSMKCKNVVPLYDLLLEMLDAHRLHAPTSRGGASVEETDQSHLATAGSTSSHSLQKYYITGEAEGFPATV
- test: Test C: estrogen receptor degradation activity, ERα in cell western assay in MCF7 cells
- Assay type: cell-based
- condition_set: at 3 μM, 4 hours, relative to fulvestrant
% Degradation at 3 μM for assorted compounds
Enter your answer as a number in %; do not include the unit.

{"compound": "Oc1ccc2c(c1Cl)OCCC(c1ccc3[nH]ccc3c1)=C2c1ccc(O[C@H]2CCN(CCCF)C2)cc1", "reported_measurement": 71}
{"compound": "Cc1ccc(C2=C(c3ccc(O[C@H]4CCN(CCCF)C4)cc3)c3cc(F)c(O)cc3OCC2)c(F)c1", "reported_measurement": 89}

ERα in MCF7 cells (Homo sapiens (Human)) data for `CC1(C)CNc2ccc(C3=C(c4ccc(O[C@H]5CCN(CCCF)C5)cc4)c4ccc(O)cc4SC3)cc21` ; its % Degradation at 3 μM: 86

ERα in MCF7 cells (Homo sapiens (Human)) data for `CCOc1ccc(C2=C(c3ccc(O[C@H]4CCN(CCCF)C4)nc3)c3ccc(O)cc3SC2)c(F)n1` ; its % Degradation at 3 μM: 89

ERα in MCF7 cells (Homo sapiens (Human)) data for `CCOc1ccc(C2=C(c3cnc(O[C@H]4CCN(CCCF)C4)nc3)c3ccc(O)cc3CCC2)c(F)c1F` ; its % Degradation at 3 μM: 82

ERα in MCF7 cells (Homo sapiens (Human)) data for `O=C(O)c1ccc2c(c1)SCCC(c1ccc(Cl)cc1Cl)=C2c1ccc(O[C@H]2CCN(CCCF)C2)cc1` ; its % Degradation at 3 μM: 93

ERα in MCF7 cells (Homo sapiens (Human)) data for [O-][S+]1CCC(c2ccc(OC(F)(F)F)cc2)=C(c2ccc(O[C@H]3CCN(CCCF)C3)cc2)c2ccc(O)cc21 (single isomer, unassigned) [Example 226] ; its % Degradation at 3 μM: 93

ERα in MCF7 cells (Homo sapiens (Human)) data for `Cc1cc(C2=C(c3ccc(O[C@H]4CCN(CCCF)C4)cc3)c3cc(O)ccc3SCC2)ccc1Cl` ; its % Degradation at 3 μM: 80

ERα in MCF7 cells (Homo sapiens (Human)) data for `Cc1ccc(C2=C(c3ccc(O[C@H]4CCN(CCCF)C4)cc3)c3ccc(O)cc3SC2)c(Cl)n1` ; its % Degradation at 3 μM: 86

ERα in MCF7 cells (Homo sapiens (Human)) data for `COc1ccc(C2=C(c3ccc(O[C@H]4CCN(CCCF)C4)cc3)c3ccc(O)cc3SCC2)c(F)c1` ; its % Degradation at 3 μM: 88

* * *

- system_name: ERα in MCF7 cells (Homo sapiens (Human))
- test: Test C: estrogen receptor degradation activity, ERα in cell western assay in MCF7 cells
- Assay type: cell-based
- condition_set: at 3 μM, 4 hours, relative to fulvestrant
measured_parameter: % Degradation at 3 μM (%)
Enter your answer as a number in %; do not include the unit.

Reference set (3 entries):
{"molecule": "Oc1ccc2c(c1)OCCC(c1ccc3occc3c1)=C2c1ccc(O[C@H]2CCN(CCCF)C2)cc1", "system_name": "ERα in MCF7 cells (Homo sapiens (Human))", "unit_abbreviation": "%", "% Degradation at 3 μM": 91}
{"molecule": "CCOc1ccc(C2=C(c3ccc(O[C@H]4CCN(CCCF)C4)cc3)c3ccc(O)cc3OCC2)c(Cl)c1", "system_name": "ERα in MCF7 cells (Homo sapiens (Human))", "unit_abbreviation": "%", "% Degradation at 3 μM": 91}
{"molecule": "CC1(C)Cc2cc(C3=C(c4ccc(O[C@H]5CCN(CCCF)C5)cc4)c4ccc(O)cc4SCC3)ccc2O1", "system_name": "ERα in MCF7 cells (Homo sapiens (Human))", "unit_abbreviation": "%", "% Degradation at 3 μM": 85}

According to the records, this molecule `Oc1ccc2c(c1)OCCC(c1ccc(OCCN3CCCC3)cc1)=C2c1ccc(O[C@H]2CCN(CCCF)C2)cc1` displays % Degradation at 3 μM of 77

According to the records, this molecule `Cc1cc2c(cc1O)OCCC(c1cccc(Cl)c1C)=C2c1ccc(O[C@H]2CCN(CCCF)C2)cc1` displays % Degradation at 3 μM of 87

According to the records, this molecule [O-][S+]1CCC(c2ccc(OC(F)(F)F)cc2)=C(c2ccc(O[C@H]3CCN(CCCF)C3)cc2)c2ccc(O)cc21 (single isomer, unassigned) [Example 227] displays % Degradation at 3 μM of 90

According to the records, this molecule `Oc1ccc2c(c1)SCC(c1ccc(F)cc1Cl)=C2c1ccc(O[C@H]2CCN(CCCF)C2)cc1` displays % Degradation at 3 μM of 95

Measured values drawn from patent US11149031B2 for this set.
